The origin of these recorded values is PubChem BioAssay AID1996.

Collected solubility kinetic values appear next to each entry.
conditions: buffer; pH 7.4; 200.0 µM
Numbers only; they are read as µg/mL.

These solved cases illustrate the format of a correct answer.
{"molecule": "Cn1cc(Cl)cc(C(=O)Nc2ccccc2)c1=O", "solubility kinetic / µg/mL": 2}
{"molecule": "C=CCn1c(C)cc(C(=O)COc2ccc(N(C)S(=O)(=O)c3ccc(NC(C)=O)cc3)cc2)c1C", "solubility kinetic / µg/mL": 9.3}
{"molecule": "Cc1nc2ccc(Nc3ccncc3)cc2s1", "solubility kinetic / µg/mL": 34.2}
{"molecule": "O=C(COC(=O)CCc1ccc(S(=O)(=O)N2CCOCC2)cc1)Nc1ccccc1OC(F)F", "solubility kinetic / µg/mL": 49.5}
{"molecule": "c1ccc(-c2ccc(-c3ccccn3)s2)nc1", "solubility kinetic / µg/mL": 4.2}
{"molecule": "Cc1ccccc1OCC(=O)Nc1ccc2oc(=O)ccc2c1", "solubility kinetic / µg/mL": 1.1}
{"molecule": "CC(C)CNP(=S)(c1ccccc1)C(C)(C)C (centres undefined)", "solubility kinetic / µg/mL": 1.7}
{"molecule": "CCC(C)n1c(O)c(C=NCc2cccnc2)c(=O)[nH]c1=S (centres undefined)", "solubility kinetic / µg/mL": 44.8}

**Query** Recorded solubility kinetic of Cc1ccc(C2(C)NC(=O)N(CC(=O)N3CCc4ccccc43)C2=O)cc1 (centres undefined) , please.
**Result** 3.6

**Query** // query: COc1ccc(N2C(=O)NC(=O)/C(=C\c3ccccc3[N+](=O)[O-])C2=O)cc1
**Result** 54.4

**Query** Now the same for Cc1ccc(NC(=O)c2cccs2)cc1NC(=O)c1ccc(F)cc1
**Result** 2

**Query** // repeat for CC(C)(C)c1ccc(-c2nc3n(c(=O)c2C#N)CCS3)cc1 and report
**Result** 3.5

**Query** Field entry: N#CCOC(=O)C1c2ccccc2Oc2ccccc21
**Result** 35.2

###

Readings of solubility kinetic for the listed compounds
conditions: buffer; pH 7.4; 200.0 µM
Numeric only. Scale: µg/mL

{"compound": "Cn1cc(SCC(=O)NC2CCCCC2)c2ccccc21", "endpointUnit": "µg/mL", "measured": 9.5}
{"compound": "Fc1ccc(CNc2ccccn2)cc1", "endpointUnit": "µg/mL", "measured": 24.3}
{"compound": "CCOc1ccccc1NC(=O)CCCNC(=O)c1ccc(Cl)cc1", "endpointUnit": "µg/mL", "measured": 50.4}
{"compound": "CCN(CC)S(=O)(=O)c1ccc(NC(=S)Nc2ccccc2)cc1", "endpointUnit": "µg/mL", "measured": 13}

**Query** // query solubility kinetic value for entry O=C(CN1C(=O)NC2(CCCCCCC2)C1=O)NCc1ccc(F)cc1
**Result** 42.9

**Query** Note, next up: CCCn1c(C)cc(C=O)c1C
**Result** 16.3

**Query** How about this compound: Cl.O=C(NC1CCN(Cc2ccccc2)CC1)c1cccc(S(=O)(=O)Nc2ccc(SC(F)F)cc2)c1
**Result** 31.7

###

conditions: buffer; pH 7.4; 200.0 µM
propertyLabel: solubility kinetic (µg/mL)
Give the value in µg/mL but do not write µg/mL after it.

**Query** // query solubility kinetic value for entry CCC1(c2ccccc2)NC(=O)N(CC(=O)N2CCc3ccccc32)C1=O (stereo unspecified)
**Result** 6.8

**Query** Again, but for Cc1ccc(S(=O)(=O)NCCC2=CCCCC2)cc1
**Result** 23

**Query** How about this molecule: CC(C)(C)NS(=O)(=O)c1ccc(NC(=S)NC(=O)C2CC2)cc1
**Result** 3

###

settings: buffer; pH 7.4; 200.0 µM
propertyLabel: solubility kinetic (µg/mL)
Express it in µg/mL; write the number only.

Sample answers from the record:
{"compound": "Cc1nc(-c2ccc(NC(=O)Cc3ccccc3)cc2)cs1", "solubility kinetic [µg/mL]": 1}
{"compound": "CN1C(=O)C(=Cc2cn(CC#N)c3ccccc23)C(=O)N(C)C1=O", "solubility kinetic [µg/mL]": 8.1}
{"compound": "NS(=O)(=O)c1cccc(C(=O)NC2CCSc3ccccc32)c1 (centres undefined)", "solubility kinetic [µg/mL]": 42.4}
{"compound": "CN(CC(=O)NCC1CCCCC1)S(=O)(=O)c1ccc(F)cc1", "solubility kinetic [µg/mL]": 16.2}
{"compound": "CCOc1ncccc1C(=O)OCc1c(F)cccc1Cl", "solubility kinetic [µg/mL]": 4.6}

**Query** // solubility kinetic lookup, key: Cc1ccc(SCC(=O)Nc2cccc(C)c2)cc1
**Result** 0.8

**Query** Another compound to check: CC(=O)c1cccc(NC(=S)NCCc2ccc(Cl)cc2)c1
**Result** 4.1

**Query** Next compound: Cc1onc(-c2c(Cl)cccc2Cl)c1C(O)c1ccc(F)cc1 (centres undefined)
**Result** 42.1

###

conditions: buffer; pH 7.4; 200.0 µM
propertyLabel: solubility kinetic (µg/mL)
Enter your answer as a number in µg/mL; do not include the unit.

# example entries with known answers
{"compound": "O=c1c(Cc2ccccc2)c(O)ccn1Cc1ccc2c(c1)OCO2", "endpointUnit": "µg/mL", "measured": 2.7}
{"compound": "O=C(CSc1ccccn1)Nc1ccc(Cl)c([N+](=O)[O-])c1", "endpointUnit": "µg/mL", "measured": 1.7}
{"compound": "Cc1cccc(CC2CC(=O)N(CCc3ccc4c(c3)OCO4)C2=O)c1 (centres undefined)", "endpointUnit": "µg/mL", "measured": 11.5}
{"compound": "CC(NC(=O)COC(=O)c1ccc2c(c1)OCO2)c1ccccc1 (centres undefined)", "endpointUnit": "µg/mL", "measured": 14.9}
{"compound": "Cc1ccc(S(=O)(=O)N2CCCCC2)cc1NC(=O)CCNC(=O)c1ccccc1", "endpointUnit": "µg/mL", "measured": 9.4}
{"compound": "COc1nc(NC(=O)c2ccc(F)cc2)nc(OC)c1-c1ccccc1", "endpointUnit": "µg/mL", "measured": 6}
{"compound": "CC(=O)Nc1cccc(NC(=O)Cc2ccc3ccccc3c2)c1", "endpointUnit": "µg/mL", "measured": 0.9}
{"compound": "CN(C)C(=O)CSc1ncccc1-c1nc2ccccc2[nH]1", "endpointUnit": "µg/mL", "measured": 42.6}

**Query** Entry CCNC(=O)NC(=O)CSc1ccc(S(=O)(=O)N2CCOCC2)cn1 has what solubility kinetic?
**Result** 56.2

**Query** Another compound: COC(=O)c1cc(C(=O)OC)n(Cc2ccc(C)cc2)c1C
**Result** 28.9

**Query** Same for Cc1cc(C(=O)COC(=O)c2ccc(NC(=O)CC#N)cc2)c(C)n1-c1ccc(OC(F)F)cc1
**Result** 1.7

**Query** Would you kindly repeat that for CCc1cccc2c1NC(=O)C2(O)N1CCCC(C)C1 (centres undefined) ?
**Result** 38.5

**Query** What about this compound? CC(C)(C)c1ccc(C(=O)NCCNC(=O)c2ccco2)cc1
**Result** 39.5

###

conditions: buffer; pH 7.4; 200.0 µM
propertyLabel: solubility kinetic (µg/mL)
Report as a plain number; the unit µg/mL is understood.

Use the examples below as a reference point.
{"molecule": "O=C(COc1ncnc2ccccc12)NCCc1ccccc1", "solubility kinetic, µg/mL": 44.8}
{"molecule": "CCN(c1ccccc1)S(=O)(=O)c1cccc(C(=O)OCC(=O)Nc2ccc(NC(C)=O)cc2)c1", "solubility kinetic, µg/mL": 2.6}
{"molecule": "Cc1cccc(NC(=O)CCc2ccccc2)c1C", "solubility kinetic, µg/mL": 11.8}
{"molecule": "O=C1c2ccccc2NC(c2ccccc2O)N1c1ccc(F)cc1 (centres undefined)", "solubility kinetic, µg/mL": 5.5}
{"molecule": "O=C(CNS(=O)(=O)c1ccccc1)Nc1cccc([N+](=O)[O-])c1", "solubility kinetic, µg/mL": 49.1}
{"molecule": "CC(=O)c1c(C)[nH]c(C(=O)NCC2CCCCC2)c1C", "solubility kinetic, µg/mL": 23.4}
{"molecule": "O=C(CN1CCOCC1)Nc1nc(-c2ccccc2)cs1", "solubility kinetic, µg/mL": 42.2}
{"molecule": "CCN(CC(=O)N1CCOCC1)S(=O)(=O)c1ccc(F)cc1", "solubility kinetic, µg/mL": 41.2}
{"molecule": "COc1ccc(CCNC(=O)Nc2cccs2)c(OC)c1", "solubility kinetic, µg/mL": 15.6}
{"molecule": "COc1cccc2cc(C(=O)NCc3ccc(C)cc3)c(=N)oc12", "solubility kinetic, µg/mL": 3}

**Query** I am curious: what solubility kinetic value has been reported for O=C(CSC1=NCCS1)c1ccc(Cl)cc1 ?
**Result** 31.2

**Query** # repeat for N/C(=N\OC(=O)c1cc([N+](=O)[O-])ccc1Cl)c1ccccn1
**Result** 11.2

###

details: buffer; pH 7.4; 200.0 µM
propertyLabel: solubility kinetic

Completed entries (count: 10):
{"compound": "C=CCc1ccccc1OCC(O)CNC(=O)c1ccccc1C(=O)O (centres undefined)", "solubility kinetic": "> 53.3 µg/mL"}
{"compound": "Cc1oc2c(cc(NS(=O)(=O)c3ccc(Cl)cc3)c3ccccc32)c1C(=O)O", "solubility kinetic": "> 62.4 µg/mL"}
{"compound": "COc1ccc(C(C)=O)cc1CSc1nnc(-c2ccncc2)n1C", "solubility kinetic": "> 53.2 µg/mL"}
{"compound": "O=C(Nc1ccc(F)cc1)OC1CN2CCC1CC2 (centres undefined)", "solubility kinetic": "> 39.6 µg/mL"}
{"compound": "CC(C)N(Cc1cnn(C)c1)Cc1nc(Cc2ccccc2Cl)no1", "solubility kinetic": "> 54 µg/mL"}
{"compound": "COc1ccc(NC(=O)Nc2nc3ccccc3s2)cc1", "solubility kinetic": "< 0.2 µg/mL"}
{"compound": "CCOc1cc(C)c(S(=O)(=O)NCc2ccccn2)cc1C", "solubility kinetic": "> 48.1 µg/mL"}
{"compound": "c1ccc(-c2cccc(-c3ccccc3)n2)cc1", "solubility kinetic": "< 0.5 µg/mL"}
{"compound": "COc1ccc(Cl)cc1NC(=O)CN(C)Cc1cccs1", "solubility kinetic": "3 µg/mL"}
{"compound": "Cc1ccc(CN2CC(C(=O)Nc3ccncc3)CC2=O)cc1 (centres undefined)", "solubility kinetic": "> 46.4 µg/mL"}

**Query** Request the reported solubility kinetic associated with C=CCNC(=S)N1CCN(C2CCCCC2)CC1
**Result** > 40.1 µg/mL

**Query** What do you have for COc1ccc(C(=O)CSc2nc(C)cc(C)n2)cc1C ?
**Result** 17.4 µg/mL

**Query** Here is the next compound: Cc1ccc(NC(=O)C2CCC(N3C(=O)C4CCCCC4C3=O)CC2)cc1 (centres undefined)
**Result** 52.2 µg/mL

**Query** What do you have for CCOc1ccc(CNC(c2ccccc2)c2ccccc2)cc1.Cl ?
**Result** < 0.8 µg/mL
